# Tested on: P. falciparum 3D7 growth, pLDH absorbance
# ASSAY_TEXT: blood-stage malaria parasite growth potency – strain 3D7, dose response (AID 2305)
MEASURE_NAME: pIC50
pIC50 (log units): -log10 of the concentration in mol/L.

Please review the entries below; each comes with its answer.
In [3]: df
Out[3]:
                                   compound                         target_under_test  measure_name  quantitative_result
0    CCCCc1cc(=O)oc2cc(C)cc(OCc3ccccc3F)c12  P. falciparum 3D7 growth, pLDH absorbance         pIC50                 5.99
1  NC1=NC(C=Cc2ccccc2)N(OCCCCCCON2C(N)=NC(N)=NC2C=Cc2ccccc2)C(N)=N1 (stereo not drawn)  P. falciparum 3D7 growth, pLDH absorbance         pIC50                 6.21
2  CC(C)NC(=O)c1cccc(-c2cccc(OCCN3CCSCC3c3ccccc3)c2)c1 (stereo not drawn)  P. falciparum 3D7 growth, pLDH absorbance         pIC50                 6.00
3  O=C1[C@H]2C(c3ccc(Cl)c(Cl)c3)N3CC(OCc4ccccc4)CC3(C(=O)O)[C@H]2C(=O)N1c1ccc(Br)cc1 (stereo partly drawn)  P. falciparum 3D7 growth, pLDH absorbance         pIC50                 6.47
4  CCOc1cc(C)ccc1NC1CCN(CCCCNC(=O)c2ccc(NC(=O)c3ccc(Cl)cc3)cc2)CC1  P. falciparum 3D7 growth, pLDH absorbance         pIC50                 6.15

Returns the measured pIC50 for the input compound. Input: `CC[C@H](C)CNC(=O)c1ccnc(-c2ccc(CNCCCc3ccccc3)cc2)c1`
5.91

Entry `CC1=CC(=O)[C@@H](O)[C@]2(C)[C@H]3[C@@]4(O)OC[C@@]35[C@@H](C[C@@H]12)OC(=O)C[C@H]5[C@@H](C)[C@H]4O` has what pIC50?
6.46

Entry source: PubChem BioAssay AID2305
